Test: Pharmacokinetic study and drug blood levels in boys with DMD
Format: in vivo, human
Conditions: male, human, in vivo, 1 mg/kg
MEASUREMENT_TYPE: half-life (h)

[[record]]
chemical_string = "CCCc1nn(C)c2c(=O)[nH]c(-c3cc(S(=O)(=O)N4CCN(C)CC4)ccc3OCC)nc12"
measurement_type = "half-life"
value = 3.2


----------
Experiment: Pharmacokinetic study and drug blood levels in boys with DMD
Format: in vivo, human
Conditions: male, human, serum, oral; boys with DMD, 1.0 mg/kg dose; read-out: elimination half-life (converted)
MEASUREMENT_TYPE: half-life (h)

[[record]]
chemical_string = "CN1CC(=O)N2[C@H](c3ccc4c(c3)OCO4)c3[nH]c4ccccc4c3C[C@@H]2C1=O"
value = 39.5


Taken from patent US20160067246A1.
